study-system: Voltage-gated potassium channel subunit beta-2 (Rattus norvegicus)
test-name: KvBeta positive modulators, primary screen, biochemical, NADPH fluorescence (AID 623);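 also: fluorescence intensity change per second fitted from 20 to 320 s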
test-context: Recombinant KvBeta, NADPH fluorescence decrease slope, 10 min; at 10 µM; stronger effect = lower value
Calls of active or inactive are those of the source.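 The calls were made as follows: active = NADPH fluorescence slope more negative than the mean of all samples by about 3 SD, 99.7% confidence; inactive = the rest.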
reported-metric: NADPH fluorescence slope

Task item: Item under review: CCc1ccccc1OCCCCCNCCO . Reported NADPH fluorescence slope?
Reply: -1e-05 (inactive)

Task item: Same question for COc1ccc(C(=O)Nc2ccccc2N2CCOCC2)cc1Br please.
Reply: -9.8e-06 (inactive)

Task item: Now this one: Oc1oc(-c2ccco2)nc1C=Nc1cccc(Cl)c1
Reply: -0.000133 (inactive)

Task item: Also, Cc1cc(=O)oc(C)c1C(=O)NCC1CCCO1 (centres undefined) please.
Reply: -4.3e-05 (inactive)

Task item: And what about the compound O=S(=O)(Nc1ccn(-c2ccccc2)n1)c1ccc(Br)cc1 ?
Reply: 0.000106 (inactive)

***
Task item: Endpoint output: NADPH fluorescence slope of O=C(Cn1ncc2c(=O)oc3ccccc3c21)NCC1CCCO1 (centres undefined) . Value?
Reply: -1.2e-05 (inactive)

Task item: Item: Cc1ccc(-c2cc3nc4c(c(=O)n3[nH]2)CCCC4)cc1
Reply: 1.7e-05 (inactive)

Task item: Thanks! And CCCCCc1c(C)nc(Nc2nc(C)c3cc(OC)ccc3n2)[nH]c1=O ?
Reply: 1.7e-05 (inactive)

Task item: Follow-up entry: Cc1cc(NS(=O)(=O)Cc2ccccc2)cc(C)c1OCC(=O)N1CCOCC1
Reply: -4.7e-05 (inactive)

Task item: Query Cc1cccc(-c2cc3nc4c(c(N5CCOCC5)n3n2)CCCC4)c1 next
Reply: 1e-05 (inactive)

Task item: Subsequent entry: Cc1ccc(N2C(=O)c3sc4nnc(C)c(=O)n4c3C2=O)cc1
Reply: -4e-05 (inactive)

Task item: # repeat for Cc1nc2ccc(NC(=O)NCc3ccco3)cc2s1
Reply: 5e-06 (inactive)

Task item: Next compound: CCc1nc(NCCN2CCOCC2)c(C#N)c2c1CCCC2
Reply: 4.1e-06 (inactive)

Task item: Now try CC(C)N1C(=O)C2C(C(=O)NC3CCCCC3)C3C=CC2(O3)C1C(=O)NC1CCCC1 (centres undefined) .
Reply: 3.1e-05 (inactive)

Task item: Try the compound COc1ccc(CSc2nnc3n(C)c(=O)c4c5c(sc4n23)CCCC5)cc1
Reply: -1.6e-05 (inactive)

Task item: Another compound to look at: COc1cc(S(=O)(=O)N2CCC(N3CCCCC3)CC2)ccc1-n1cnnn1
Reply: -7.9e-06 (inactive)

Task item: How about this compound: O=C(CCCc1cccs1)Nc1nc2c(s1)CCCC2
Reply: -2.9e-05 (inactive)

Task item: One more compound: Cc1ccc(Cn2ncc3c(N4CCN(Cc5ccc(Cl)cc5)CC4)ncnc32)cc1
Reply: -6.6e-05 (inactive)

Task item: // repeat for COc1ccc(C)cc1NC(=O)COCC(=O)O and report
Reply: -1.6e-05 (inactive)

Task item: Moving on to the next compound: Cc1ccc(NC(=O)c2cc(N3CCOCC3)nc3ccccc23)cc1
Reply: -2.7e-05 (inactive)
